Values compiled from paper PMC5636194.

- Assay Overview: In vivo bio-distribution (LC-MS/MS, noncompartmental PK)
- Parameters: species or system mice (CD-1)
- Setup Conditions: female, mouse; CD-1 mice, single IV dose 8 mg/kg, plasma
Measured Quantity: AUC (ng·h/mL)

Molecule | Units Text | Data Value
CN(C)c1ccc2nc3ccc(=[N+](C)C)cc-3sc2c1 [MB, methylene blue] | ng·h/mL | 2130
